Target: mTGR5 (Mus musculus, UniProt Q80SS6)
Construct: expressed in transfected cells; host or cells: HEK293 cells, transiently co-transfected with the pCRE TA-Luciferase reporter
Sequence (Q80SS6 whole entry): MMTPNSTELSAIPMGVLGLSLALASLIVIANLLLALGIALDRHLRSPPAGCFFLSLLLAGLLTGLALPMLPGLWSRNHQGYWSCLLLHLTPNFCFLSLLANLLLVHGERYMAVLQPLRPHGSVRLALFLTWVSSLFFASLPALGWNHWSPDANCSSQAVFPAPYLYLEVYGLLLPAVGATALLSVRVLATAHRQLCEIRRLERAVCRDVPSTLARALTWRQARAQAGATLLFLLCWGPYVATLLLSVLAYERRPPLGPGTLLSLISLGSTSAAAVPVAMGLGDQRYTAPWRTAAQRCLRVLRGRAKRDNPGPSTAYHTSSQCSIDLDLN
Experiment: TGR5/CRE Luciferase Assay (mTGR5)
Format: cell-based
Conditions: percentage of the 10 μM LCA value; HEK 293 cells transfected with mTGR5
Description: TGR5/CRE Luciferase Assay In the following Tables TGR5 activation by compounds of the invention and subsequent increase in intracellular cAMP were evaluated using a luciferase reporter gene assay. […] Luminescence was read with a Mithras plate reader (Berthold) or a Victor3™ V1420 (Perkin Elmer). […]
experimental_endpoint: mTGR5 % trans (%)
One number for each entry, in %.

// below: answered compounds
[[record]]
compound = "CC1=C(C(=O)OCc2ccccc2OCCS(=O)(=O)O)[C@@H](c2ccc(Cl)nc2)CC(=O)N1C[C@@H]1CCCO1.N (racemic)"
measured = 97

[[record]]
compound = "COCCN1C(=O)CC(c2ccc(Cl)cc2)C(C(=O)NCc2ccccc2)=C1C (stereo not drawn)"
measured = 25

[[record]]
compound = "COCCN1C(=O)CC(c2ccc(Cl)cc2)C(C(=O)OCc2ccc(OCCCN(C)C)cc2)=C1C (stereo not drawn)"
measured = 82

[[record]]
compound = "CC1=C(C(=O)OCc2ccccc2)C(c2ccc(Cl)cc2)CC(=O)N1CCNC(=O)OC(C)(C)C (stereo not drawn)"
measured = 0

[[record]]
compound = "COCCN1C(=O)CC(c2ccc(Cl)cc2)C(C(=O)OCc2ccc(C(=O)OC)cc2)=C1C (stereo not drawn)"
measured = 76


State the recorded mTGR5 % trans for every item in the following list.
1. COCCOc1ccc(COC(=O)C2=C(C)N(C[C@@H]3CCCO3)C(=O)C[C@H]2c2ccc(Cl)cc2)cc1 (racemic)
2. COCCC1=C(C(=O)OCc2ccccc2)C(c2ccc(Cl)cc2)CC(=O)N1 (stereo not drawn)
3. COCCOc1ccc(COC(=O)C2=C(C)N(C[C@H]3CCCO3)C(=O)C[C@H]2c2ccc(Cl)cc2)cc1 (racemic)
4. O=C(NCc1ccccc1)C1=CN(CC2CC2)C(=O)CC1c1ccc(Cl)cc1 (stereo not drawn)

[112, 44, 111, 12]
